Record form. Attribute: dMFI. Fill in for each entry.
Biological target: T1, mouse IL-12Rβ2 expressed on cells (mouse, UniProt P97378 24-874)
T1 construct: the cell lines are described by plasmid or cDNA number only; also called mIL-12RB2; HEK293T transiently transfected with mouse IL-12Rβ2
T1 sequence: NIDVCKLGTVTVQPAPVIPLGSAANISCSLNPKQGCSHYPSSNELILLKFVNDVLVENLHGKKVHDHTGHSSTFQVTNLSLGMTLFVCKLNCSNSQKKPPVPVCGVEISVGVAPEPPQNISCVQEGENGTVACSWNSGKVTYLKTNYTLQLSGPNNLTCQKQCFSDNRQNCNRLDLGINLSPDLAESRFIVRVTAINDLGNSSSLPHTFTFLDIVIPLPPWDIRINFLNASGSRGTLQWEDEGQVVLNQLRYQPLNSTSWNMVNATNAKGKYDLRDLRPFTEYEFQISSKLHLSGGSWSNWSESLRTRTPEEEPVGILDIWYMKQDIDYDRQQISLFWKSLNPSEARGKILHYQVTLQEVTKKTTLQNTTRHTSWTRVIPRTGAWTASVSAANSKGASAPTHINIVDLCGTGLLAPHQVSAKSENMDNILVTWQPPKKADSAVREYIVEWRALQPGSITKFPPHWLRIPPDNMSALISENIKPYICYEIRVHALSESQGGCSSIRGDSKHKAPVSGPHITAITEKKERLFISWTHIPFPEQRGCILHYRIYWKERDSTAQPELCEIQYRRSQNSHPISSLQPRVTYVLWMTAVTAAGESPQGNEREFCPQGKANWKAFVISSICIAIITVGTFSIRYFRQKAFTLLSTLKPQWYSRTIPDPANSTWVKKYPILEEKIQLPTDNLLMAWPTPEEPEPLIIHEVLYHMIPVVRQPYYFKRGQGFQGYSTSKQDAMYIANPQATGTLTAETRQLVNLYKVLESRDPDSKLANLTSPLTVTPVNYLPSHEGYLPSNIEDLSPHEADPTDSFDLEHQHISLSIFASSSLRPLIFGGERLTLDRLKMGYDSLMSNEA
Experiment: flow cytometry, periplasmic extract VHH-HA on HEK293T cells transiently expressing mouse IL-12Rβ2
Write no unit; give the number alone.

Using the record for anti-IL-12Rβ2 VHH clone 3CAHM11 (clone ID 21050) (VHH, Tested as periplasmic extract; not shown: C-terminal HA tag) VHH: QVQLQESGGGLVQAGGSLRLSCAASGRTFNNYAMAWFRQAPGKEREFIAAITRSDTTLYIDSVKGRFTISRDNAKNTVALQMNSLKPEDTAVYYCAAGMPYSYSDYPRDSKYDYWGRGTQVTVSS , report its dMFI.
194

dMFI for anti-IL-12Rβ2 VHH clone 3CRHM73 (clone ID 21060) (VHH, Tested as periplasmic extract; not shown: C-terminal HA tag) VHH: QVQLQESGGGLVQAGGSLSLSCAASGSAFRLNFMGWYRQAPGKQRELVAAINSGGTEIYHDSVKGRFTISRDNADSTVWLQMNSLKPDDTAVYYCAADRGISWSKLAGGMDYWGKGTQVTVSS ?
257

Data request, read-out dMFI, for anti-IL-12Rβ2 VHH clone 3CRHM99 (clone ID 21062) (VHH, Tested as periplasmic extract; not shown: C-terminal HA tag) VHH: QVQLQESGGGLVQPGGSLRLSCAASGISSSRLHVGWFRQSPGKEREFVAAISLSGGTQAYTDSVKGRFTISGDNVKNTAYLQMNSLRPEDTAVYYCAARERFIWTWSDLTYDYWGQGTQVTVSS
251

Dear colleague, I am looking for the recorded dMFI of the following binder: anti-IL-12Rβ2 VHH clone 3CRHM14 (clone ID 21053) (VHH, Tested as periplasmic extract; not shown: C-terminal HA tag) VHH: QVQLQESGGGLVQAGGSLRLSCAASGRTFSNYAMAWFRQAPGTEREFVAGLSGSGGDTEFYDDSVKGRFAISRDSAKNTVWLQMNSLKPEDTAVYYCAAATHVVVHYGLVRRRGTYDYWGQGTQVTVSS
312

// data source = patent US20260209362A1
